measured_on: MK2 (Homo sapiens, UniProt P49137)
Sequence (P49137 whole entry): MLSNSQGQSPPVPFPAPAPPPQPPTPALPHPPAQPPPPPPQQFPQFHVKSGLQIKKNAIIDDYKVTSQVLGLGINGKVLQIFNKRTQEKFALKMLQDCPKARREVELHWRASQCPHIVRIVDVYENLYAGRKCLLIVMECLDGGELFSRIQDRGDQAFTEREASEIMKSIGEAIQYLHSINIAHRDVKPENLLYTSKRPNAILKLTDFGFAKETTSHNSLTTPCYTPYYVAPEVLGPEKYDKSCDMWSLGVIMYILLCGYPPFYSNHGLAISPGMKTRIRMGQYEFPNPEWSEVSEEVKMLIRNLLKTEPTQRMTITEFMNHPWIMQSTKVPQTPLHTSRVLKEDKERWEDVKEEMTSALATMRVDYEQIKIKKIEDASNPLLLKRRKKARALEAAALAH
assay_procedure: MK2 degradation in human THP-1 monocytic cells (MSD, 24 h)
Type: cell-based
Set-up: endogenous in cells
condition_context: THP-1 cells, read-out: MK2 MSD THP-1 degradation 24 h GMean External Abs DC50
Consider the following molecules and their measured DC50 readings.

Reference set (3 entries):
Give the reported value of DC50 for this record: Cn1c(=O)n(C2CCC(=O)NC2=O)c2cccc(OCCN3CCN(c4ccc(-c5nccc(-c6cc7c([nH]6)C6(CC6)CNC7=O)n5)c(F)c4)CC3)c21 (stereo not shown) < 1 nM

Give the reported value of DC50 for this record: C[C@@H]1CNc2c(sc3ccc4nc(N5CCN(C[C@H]6C[C@]7(CCN(c8ccc9c(c8)n(C)c(=O)n9C8CCC(=O)NC8=O)C7)C6)CC5)ccc4c23)C(=O)N1 (stereo partly shown) < 1 nM

Give the reported value of DC50 for this record: Cn1c(=O)n(C2CCC(=O)NC2=O)c2ccc(N3CC(CN4CCN(c5ccc(-c6cc(-c7cc8c(o7)C7(CC7)CNC8=O)ncn6)cc5)CC4)C3)cc21 (stereo not shown) > 100 nM

// switching to the query molecule
Give the reported value of DC50 for this record: C[C@@H]1CNc2c(sc3ccc4nc(N5CCC(N(CC(F)F)C6CC7(CCN(c8ccc9c(c8)n(C)c(=O)n9C8CCC(=O)NC8=O)CC7)C6)CC5)ccc4c23)C(=O)N1 (stereo partly shown) < 1 nM
